# reported Activity; entries follow
assay: Antioxidant activity assessed as reducing power of ferric ion at 100 ug/ml after 20 mins; type: functional; parameters: scale not given: the % may be the effect or the level left
Give your result in % as a bare value.

Worked examples follow.
In: Given COc1ccc(C2=NN(c3ccccc3)C(c3noc(-c4ccc(Cl)cc4)n3)C2)cc1 (configuration not stated) , respond with its Activity.
Out: 58

In: Given c1ccc(C2=NN(c3ccccc3)C(c3noc(-c4ccccc4)n3)C2)cc1 (configuration not stated) , respond with its Activity.
Out: 58

In: Given COc1ccccc1-c1nc(C2CC(c3ccccc3)=NN2c2ccccc2)no1 (configuration not stated) , respond with its Activity.
Out: 54

In: Given COc1ccc(C2=NN(c3ccccc3)C(c3noc(-c4ccc(OC)c(OC)c4)n3)C2)cc1 (configuration not stated) , respond with its Activity.
Out: 74

***
In: Given Oc1ccc(C2=NN(c3ccccc3)C(c3noc(-c4ccc(O)cc4)n3)C2)cc1 (configuration not stated) , respond with its Activity.
Out: 76

In: Given Clc1ccc(C2=NN(c3ccccc3)C(c3noc(-c4ccccc4)n3)C2)cc1 (configuration not stated) , respond with its Activity.
Out: 62
